Conditions: read-out: Bz Cmax; plasma benzoate; day 4
Readout Name: Cmax (µM)
The reply should contain only the number, in µM.

Ask: Suppose we examine the compound O=C([O-])c1ccccc1.[Na+] [NaBz, sodium benzoate] ; what Cmax value has been reported?
Result: 217

###

Assay: clinical
Conditions: human, in vivo
Readout Name: Tmax (h)
The reply should contain only the number, in h.

Ask: Suppose we examine the compound O=C(O)CNC(=O)c1ccccc1 [hippuric acid] ; what Tmax value has been reported?
Result: 2.2
